Origin of the recorded values: patent US12116358B2

TARGET_OR_SYSTEM: SETD2(1434-1711) (Homo sapiens, UniProt Q9BYW2)
Construct: SETD2 (1434-1711) Assay; catalogue N/A
Sequence (Q9BYW2 1434-1711): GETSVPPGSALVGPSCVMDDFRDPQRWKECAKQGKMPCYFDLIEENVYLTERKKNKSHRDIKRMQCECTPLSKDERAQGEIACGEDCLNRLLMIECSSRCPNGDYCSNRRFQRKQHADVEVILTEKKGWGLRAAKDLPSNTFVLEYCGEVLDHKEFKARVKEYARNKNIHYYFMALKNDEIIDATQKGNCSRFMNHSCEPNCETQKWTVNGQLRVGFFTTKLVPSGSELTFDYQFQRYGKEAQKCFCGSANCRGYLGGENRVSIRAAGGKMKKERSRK
ASSAY_INFO: SETD2 (1434-1711) assay
Type: biochemical
RECORDED_CONDITIONS: read-out: SETD2 (1434-1711)
Lab note: compare IC50 with 2 µM, writing Yes if less and No if equal or more.

[
  {
    "COMPOUND": "COC(=O)CC(NC(=O)c1cc2cccc(C)c2[nH]1)c1ccccc1 (stereo not shown)",
    "CLASSIFICATION": "No"
  },
  {
    "COMPOUND": "CCOC(=O)C(NC(=O)c1cc2cccc(C)c2[nH]1)C(F)(F)F (stereo not shown)",
    "CLASSIFICATION": "No"
  },
  {
    "COMPOUND": "CC(=O)N1CCN(c2cc(Cl)cc(NC(=O)c3cc4c(F)ccc(C)c4[nH]3)c2)CC1",
    "CLASSIFICATION": "Yes"
  }
]

Prompt: Determine if Cc1cc(C(=O)NC2CCNC2)cnc1C(NC(=O)c1cc2cccc(C)c2[nH]1)C1CC1 (stereo not shown) shows IC50 strictly lower than 2 µM.
Response: Yes

Prompt: Could you please tell me whether IC50 recorded for Cc1ccc(F)c2cc(C(=O)Nc3cccc(-c4c[nH]cn4)c3)[nH]c12 is less than 2 µM?
Response: Yes

Prompt: Is IC50 of Cc1cccc2cc(C(=O)N[C@@H](c3ccccc3)C(F)(F)F)[nH]c12 strictly below 2 µM?
Response: No

Prompt: Is IC50 strictly under 2 µM for the entry Cc1cccc2cc(C(=O)NCc3ccnn3C)[nH]c12 ?
Response: No

Prompt: Would you kindly verify if IC50 of Cc1ccc(F)c2cc(C(=O)NC3CCCC(N4CCC(N5CCOC5=O)C4)C3)[nH]c12 (stereo not shown) [compound 959] is strictly less than 2 µM?
Response: No

Prompt: Regarding Cc1cccc2cc(C(=O)NC3CCC(c4ccccc4)NC(=O)C3)[nH]c12 (stereo not shown) , kindly confirm whether its IC50 is beneath 2 µM.
Response: No

Prompt: For this compound, is IC50 lower than 2 µM? Cc1cccc2cc(C(=O)N[C@H](CO)Cc3ccccc3)[nH]c12
Response: No

Prompt: Here's an entry: Cc1ccc(F)c2cc(C(=O)Nc3ncc(C4CCN(C)CC4)[nH]3)[nH]c12 . Is its IC50 below 2 µM?
Response: No

Prompt: Item Cc1cccc2cc(C(=O)NC(C)c3ccccc3C(F)(F)F)[nH]c12 (stereo not shown) : IC50 beneath 2 µM, strictly?
Response: No

Prompt: Please check: IC50 for CNC(=O)CCN1CCCC(NC(=O)c2cc3c(F)ccc(C)c3[nH]2)C1 (stereo not shown) , strictly under 2 µM or not?
Response: No

====

TARGET_OR_SYSTEM: SETD2(1434-1711) (Homo sapiens, UniProt Q9BYW2)
Construct: SETD2 (1434-1711) Assay; catalogue N/A
ASSAY_INFO: SETD2 (1434-1711) assay
Assay type: biochemical
RECORDED_CONDITIONS: read-out: SETD2 (1434-1711)
ASSAY_READOUT: IC50

[
  {
    "MOLECULE": "Cc1ccc(F)c2cc(C(=O)NC3CCCN(CC(=O)N(C)C)C3)[nH]c12 (stereo not drawn)",
    "TARGET_OR_SYSTEM": "SETD2(1434-1711) (Homo sapiens, UniProt Q9BYW2)",
    "REPORTED_MEASUREMENT": "> 10 µM"
  },
  {
    "MOLECULE": "Cc1cccc2cc(C(=O)NCCc3ccccc3-c3ccccc3)[nH]c12",
    "TARGET_OR_SYSTEM": "SETD2(1434-1711) (Homo sapiens, UniProt Q9BYW2)",
    "REPORTED_MEASUREMENT": "> 200 µM"
  }
]

Now consider a different molecule.
Prompt: Return reported IC50; argument: Cc1cccc2cc(C(=O)NC3CCC(NC(=O)Cc4cccnc4)CC3)[nH]c12 (stereo not drawn)
Response: > 50 µM
